# System: DU-145 prostate
# method-notes: NCI tumour cell line growth inhibition, 48 h
Catalogue of compounds with associated TGI
measurement-type: TGI (µM)

INSERT INTO assay_data (compound, system_under_test, inequality_symbol, numeric_readout) VALUES
  ('Cc1cc(S(=O)(=O)n2cc[nH]c2=O)c(SCCCN(C)C)cc1Cl', 'DU-145 prostate', '>', 100),
  ('COC(=O)c1oc([N+](=O)[O-])c(Cl)c1Cl', 'DU-145 prostate', '=', 32.5),
  ('O=c1[nH]nc(-c2ccccc2)n1/N=C\CC/C=N\n1c(-c2ccccc2)n[nH]c1=O', 'DU-145 prostate', '>', 100),
  ('CC(C)(C)COC1C2(OCCO2)C2CCC1(C)C2(C)C (stereo not given)', 'DU-145 prostate', '>', 100),
  ('CCOC(=O)C1=C(C)NC(=O)NC1c1ccc(N(CCCl)CCCl)cc1Cl (stereo not given)', 'DU-145 prostate', '=', 32.1);

These data points were gathered from PubChem BioAssay (NCI).
